The reported numbers originate from patent US10344064B2.

tested on: A1; experiment: Apparent Kd by E. coli surface display and flow cytometry, A1; type: binding; settings: Table 3; apparent Kd, unstapled 14-mer displayed on E. coli (eCPX)
So basically, if Kd comes in under 30 nM it's Satisfied, and if it's 30 nM or more it's Not satisfied.

CC[C@H](C)[C@@H]1NC(=O)[C@@](C)(NC(=O)[C@H](CCCNC(=N)N)NC(=O)[C@H](CC(C)C)NC(=O)[C@H](CC(C)C)NC(=O)[C@H](CCC(N)=O)NC(=O)[C@H](C)NC(=O)[C@H](CC(C)C)NC(=O)[C@@H](N)Cc2c[nH]c3ccccc23)CCCC=CCCC[C@@](C)(C(=O)N[C@H](C(=O)N[C@@H](CC(N)=O)C(N)=O)[C@@H](C)CC)NC(=O)[C@H](CC(=O)O)NC(=O)CNC1=O [M2-4] = Satisfied

Inquiry: Threshold test, Kd < 30 nM: CC[C@H](C)[C@@H]1NC(=O)[C@@](C)(NC(=O)[C@H](CCCNC(=N)N)NC(=O)[C@H](CC(C)C)NC(=O)[C@H](CC(C)C)NC(=O)[C@H](CCC(N)=O)NC(=O)[C@H](C)NC(=O)[C@@H](NC(=O)[C@@H](N)Cc2c[nH]c3ccccc23)C(C)C)CCCC=CCCC[C@@](C)(C(=O)N[C@H](C(=O)N[C@@H](CC(N)=O)C(N)=O)C(C)C)NC(=O)[C@H](CC(=O)O)NC(=O)CNC1=O [M2-2]
Reply text: Satisfied

Inquiry: Threshold test, Kd < 30 nM: CC(C)C[C@H](NC(=O)[C@H](CCC(N)=O)NC(=O)[C@H](C)NC(=O)[C@H](CC(C)C)NC(=O)[C@@H](N)Cc1c[nH]c2ccccc12)C(=O)N[C@@H](CC(C)C)C(=O)N[C@@H](CCCNC(=N)N)C(=O)N[C@@]1(C)CCCC=CCCC[C@@](C)(C(=O)N[C@@H](Cc2ccccc2)C(=O)N[C@@H](CC(N)=O)C(N)=O)NC(=O)[C@H](CC(=O)O)NC(=O)CNC(=O)[C@H](Cc2ccc(O)cc2)NC1=O [X2-8]
Reply text: Not satisfied
